TGI values, listed per item
System: HOP-92 NSCLC
experiment: NCI tumour cell line growth inhibition, 48 h
assay.readout: TGI

- CCN(CC)CCC(=O)/C=C/c1ccc(Cl)c(Cl)c1: > 10 µM
- Cc1cc(=O)[nH]c2cc(NC(=O)C(C)NC(=O)C(C)NC(=O)C(C)NC(=O)OC(C)(C)C)ccc12 (configuration not stated): > 15 µM
- COc1ccc([N+](=O)[O-])c2c(NCCCN(C)C)c(C)c(C)nc12: > 100 µM
- O=CNC(Cc1cnc[nH]1)C(=O)O (configuration not stated): > 100 µM
- O=C(CC(C(=O)c1ccsc1)c1cccs1)c1ccccc1 (configuration not stated): > 100 µM
- O=[N+]([O-])c1ccc(Sc2cccc[n+]2[O-])c2nonc12: 23.7 µM
- CC1OC(NCCNCCNC2OC(C)C(O)C(O)C2O)C(O)C(O)C1O (configuration not stated): > 100 µM

* * *

Catalogue of TGI values
Tested on: HL-60(TB) leukemia
experiment: NCI tumour cell line growth inhibition, 48 h
assay.readout: TGI

* COc1ccc(CCN2CCCn3c2nc2ccccc2c3=O)cc1 | 0.982 µM
* Cc1c(C)c2cc3c(=O)c(CCl)coc3c(C)c2oc1=O | > 100 µM
* COc1ccc(C2=Nn3c(nnc3-c3ccc(F)c(Cl)c3)SC2)cc1 | > 100 µM
* COc1ccc(-c2cc(-c3ccc(C)cc3)n(C3OC(COC(C)=O)C(OC(C)=O)C(OC(C)=O)C3OC(C)=O)c(=S)c2C#N)cc1 (configuration not stated) | > 100 µM
* O=CNC(Cc1cnc[nH]1)C(=O)O (configuration not stated) | > 100 µM
* Cc1nc(-n2nc(-c3ccccc3)cc2-c2ccccc2)sc1C(=O)CC(=O)C(=O)Nc1ccc(Cl)c(Cl)c1 | > 100 µM
* CCOC(CBr)OC1C(=O)OCC1(C)C (configuration not stated) | > 100 µM
* NCC(=O)Nc1ccc(Cl)cc1C(=O)c1ccc[nH]1 | > 100 µM
* C/C(Cc1ccc2c(c1)OCO2)=N\N=c1\sc2ccccc2n1C | > 100 µM
* Cc1cccc2c(=O)c3cccc([C@H](C)C(=O)O)c3oc12 | > 100 µM
* Cc1cccc(CNc2c3ccccc3nc3ccccc23)c1 | 5.28 µM
* CCN(Cc1cc(Cl)cc(C)c1O)Cc1c(O)ccc2ccccc12 | 34 µM
* Nc1n[n+]([O-])c2ccc(Cl)cc2[n+]1[O-] | > 100 µM
* COc1ccc2c(c1OC)C(=O)C2 | > 100 µM
* Cc1cccc(NC(=O)c2c(N)[n+]([O-])c3ccccc3[n+]2[O-])c1 | 56.7 µM
* O=C(CSSCC(=O)c1ccc(Cl)cc1)c1ccc(Cl)cc1 | > 100 µM
* CC1OC(NCCNCCNC2OC(C)C(O)C(O)C2O)C(O)C(O)C1O (configuration not stated) | > 100 µM
* Nc1cc(OCC2CCCCC2)nc(N)n1 | > 100 µM
* O=C(O)/C=C/c1c2ccc(=O)c(O)c-2oc2c(O)c(O)ccc12 | > 100 µM
* CCCCC[C@@H]1CCCC2NC(CCCCCO[Si](c3ccccc3)(c3ccccc3)C(C)(C)C)CCC21 (some centres not stated) | 23 µM
* O=[N+]([O-])c1ccccc1/C=N\NC(=S)N/N=C/c1ccccc1[N+](=O)[O-] | > 100 µM
* CN1CCN(C2=C(Cl)C(=O)c3ccccc3C2=O)CC1 | 5.84 µM
* CS(=O)(=O)OCCN(CCOS(C)(=O)=O)c1ccc(C=Nc2ccc(-c3csc(Cc4ccccc4)n3)cc2)c(Cl)c1 | 35.7 µM
* O=c1c(NCc2ccccc2)c(C2(c3ccccc3F)SCCCS2)c1=O | > 100 µM
* CCOC(=O)c1ccc(N=Cc2ccc(N(CCC#N)S(=O)(=O)c3ccccc3)cc2C)cc1 | > 100 µM
* COc1ccc2c(=O)c(-c3cc(OC)c(OC)cc3OC)coc2c1 | 2.92 µM
* Nc1nnc(N)n1N | > 100 µM
* O=c1cc(NNc2ccccc2)[nH]c(=O)[nH]1 | 64.6 µM
* CC1(Cl)C(=O)NC(=O)N([C@H]2C[C@H](O)[C@@H](CO)O2)C1N=[N+]=[N-] (some centres not stated) | > 100 µM
* CC1[C@@]2(O[C@@H]3C=C4C5CCC6Cc7nc8c(nc7C[C@@]6(C)C5C[C@H](O)[C@@]4(C)[C@]13O)CC1CCc3c(cc4c5c3C(O)C[C@H]5[C@@H](C)C3(O4)OC(C)(C)CC3O)[C@]1(C)C8)O[C@@](C)(CO)C[C@@H]2O (some centres not stated) | > 3.72 µM
* CN(C)CCNC(=O)c1cccc2c1C(=O)c1ccccc1C2=O | 57.8 µM
* O=C1/C(=C/c2ccc(F)cc2)COc2ccc(O)c(O)c21 | 3.89 µM
* COc1ccc2c(c1)/C(=C\c1c(Cl)nc3n1CCS3)C(=O)N2 | 17.2 µM
* COc1ccc(-c2cc(=O)c3c(O)c(O)c(OC)cc3o2)cc1O | > 100 µM
* COc1cc(/C=C/C(=O)c2c(C)n([O-])c3ccccc3[n+]2=O)cc(OC)c1OC | > 100 µM
* C=CCCC(O)c1cc(C)c(O)c(C)c1 (configuration not stated) | > 100 µM
* O=C(CCN1CCCC1)Nc1ccc2c(Nc3ccc(F)cc3)c3ccccc3nc2c1 | 3.75 µM
* CC1=C[P+](c2ccccc2)(c2ccccc2)c2ccccc2O1 | 8.76 µM
* CCOP(=O)(OCC)C(c1ccc(F)cc1)N(C(=O)NC(F)(F)F)c1ccc(F)cc1 (configuration not stated) | > 100 µM
* CC(C)(C)OC(=O)NCCCCCCCCCn1c2c(c3ccccc3c1=O)C(=O)c1ccccc1-2 | > 100 µM
* NCCCn1c(Cl)nc2ccccc21 | > 100 µM
* COc1ccc(-n2cc(-c3cc(OC)c(OC)c(OC)c3)nc2SCc2cccc(C#N)c2)cc1OC | > 100 µM
